Give measured self-cleavage for each item. Keep answers brief.
B1: LINE1-full (parent)
chain: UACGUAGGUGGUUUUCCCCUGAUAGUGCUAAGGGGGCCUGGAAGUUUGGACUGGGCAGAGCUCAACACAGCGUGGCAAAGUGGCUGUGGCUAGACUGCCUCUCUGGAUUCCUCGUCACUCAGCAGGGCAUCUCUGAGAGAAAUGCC

Variants of: B1
Test: self-cleavage, relative activity (ratio to wild type); higher = more cleavage; in vitro, sequencing; the parent is a self-cleaving ribozyme
Answer with a bare number; do not write a unit.

Consider the variant C98U U108C and give its measured self-cleavage.
0.48

// same read-out, input: U81C U87C
0.4

What about A31C ?
1.43

Moving on to C3G A69U
0.11

Another variant to check: A2U U9C
0.7

# iterate: U47G U134C
0

Now this one: A59U
0.8

Query U112A A121G next
1.82

Note, next up: A24U U91C
0.45

Please give the result for A92U A138G too.
0.75

Please answer likewise for U45A G74U
1.59

Also check G36C U91C
0.51

Next variant up: A57U A117C
0.28

Thanks! And U13C A78U ?
1.81

Do the same for U96A U104C please
0.07

Another variant to look at: U15C A141U
1.58

Then what about the variant U85C A124U ?
0.21

Input A24U U108A
1.51

# iterate: U20A U96A
0.05

Would you mind doing G49U U132A as well?
1.31

Proceed to U13C G53C
2.02

What about U109C C123U ?
1.22

Recorded values, source the RNAGym collection of RNA variant scans (doi:10.7554/elife.90254).
